Provenance of the data: patent US20250320213A1

# target: STAT6 (Homo sapiens, UniProt P42226)
# Construct: stably transfected HaCaT keratinocyte cell line, which expresses NanoLuc luciferase reporter gene under the transcriptional control of the STAT6 responsive promoter; endogenous in cells; host or cells: HaCaT keratinocyte reporter cell line (stably transfected with a NanoLuc reporter)
# Sequence (P42226 1-847): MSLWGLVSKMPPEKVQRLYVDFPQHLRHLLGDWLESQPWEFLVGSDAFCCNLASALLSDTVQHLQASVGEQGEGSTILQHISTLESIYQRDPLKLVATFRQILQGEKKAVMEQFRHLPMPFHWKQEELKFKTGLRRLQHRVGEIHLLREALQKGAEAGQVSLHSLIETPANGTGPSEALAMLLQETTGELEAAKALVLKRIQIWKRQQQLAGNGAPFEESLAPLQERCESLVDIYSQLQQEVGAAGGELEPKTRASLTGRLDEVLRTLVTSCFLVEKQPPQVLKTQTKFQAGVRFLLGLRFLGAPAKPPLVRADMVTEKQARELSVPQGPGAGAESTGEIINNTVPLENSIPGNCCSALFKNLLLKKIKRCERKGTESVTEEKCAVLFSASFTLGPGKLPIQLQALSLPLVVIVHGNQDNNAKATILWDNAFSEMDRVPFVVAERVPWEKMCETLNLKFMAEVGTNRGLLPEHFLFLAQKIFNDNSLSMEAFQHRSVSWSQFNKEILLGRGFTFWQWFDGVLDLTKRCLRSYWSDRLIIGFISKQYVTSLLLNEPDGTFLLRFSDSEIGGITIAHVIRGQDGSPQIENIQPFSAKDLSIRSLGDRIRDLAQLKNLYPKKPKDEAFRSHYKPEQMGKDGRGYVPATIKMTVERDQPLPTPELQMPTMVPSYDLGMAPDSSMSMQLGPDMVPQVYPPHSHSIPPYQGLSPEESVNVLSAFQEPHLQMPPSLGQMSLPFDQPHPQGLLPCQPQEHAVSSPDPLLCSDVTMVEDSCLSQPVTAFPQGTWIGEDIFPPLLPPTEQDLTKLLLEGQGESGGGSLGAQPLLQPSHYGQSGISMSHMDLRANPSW
# test protocol: STAT6 Reporter Luciferase Assay (IL-13 stimulated HaCaT keratinocyte NanoLuc reporter cells)
# Assay type: cell-based
# protocol conditions: IL-13 stimulated HaCaT STAT6 NanoLuc reporter cells; read-out: Reporter EC50
pEC50: −log10 of the molar value.
assay readout: pEC50

P: CC(C)n1nc(C(=O)NCc2ccc(NC(=O)N(C)C)cc2)c2c1CCN(c1ccc(C(=O)N3CCc4nccnc4C3)cn1)C2
Q: CC(C)n1nc(C(=O)NCc2ccc(NC(=O)N(C)C)cc2)c2c1[C@@H](C)CN(c1ccc(C(=O)N(C)CC3CN(C)C3)cc1)C2
R: CN(C)C(=O)Nc1ccc(CNC(=O)c2nn(C3CCCC3)c3c2CN(c2ccc(C(=O)N(C)C)cn2)CC3)cc1
Task: # desc sort on pEC50 across 3 compounds Response format: the labels, sorted as the prompt asks.
Result: R, P, Q
